Task for the reader: assign each of the following molecules its reported inhibition at 10 µM.
# target_of_assay: HDAC6 enzyme (Homo sapiens)
# Construct: transducing full length HDAC6 gene into Sf-9 insect cells; GST; purchased SignalChem; host or cells: Sf-9 insect cells
# Sequence (Q9UBN7 1-1215): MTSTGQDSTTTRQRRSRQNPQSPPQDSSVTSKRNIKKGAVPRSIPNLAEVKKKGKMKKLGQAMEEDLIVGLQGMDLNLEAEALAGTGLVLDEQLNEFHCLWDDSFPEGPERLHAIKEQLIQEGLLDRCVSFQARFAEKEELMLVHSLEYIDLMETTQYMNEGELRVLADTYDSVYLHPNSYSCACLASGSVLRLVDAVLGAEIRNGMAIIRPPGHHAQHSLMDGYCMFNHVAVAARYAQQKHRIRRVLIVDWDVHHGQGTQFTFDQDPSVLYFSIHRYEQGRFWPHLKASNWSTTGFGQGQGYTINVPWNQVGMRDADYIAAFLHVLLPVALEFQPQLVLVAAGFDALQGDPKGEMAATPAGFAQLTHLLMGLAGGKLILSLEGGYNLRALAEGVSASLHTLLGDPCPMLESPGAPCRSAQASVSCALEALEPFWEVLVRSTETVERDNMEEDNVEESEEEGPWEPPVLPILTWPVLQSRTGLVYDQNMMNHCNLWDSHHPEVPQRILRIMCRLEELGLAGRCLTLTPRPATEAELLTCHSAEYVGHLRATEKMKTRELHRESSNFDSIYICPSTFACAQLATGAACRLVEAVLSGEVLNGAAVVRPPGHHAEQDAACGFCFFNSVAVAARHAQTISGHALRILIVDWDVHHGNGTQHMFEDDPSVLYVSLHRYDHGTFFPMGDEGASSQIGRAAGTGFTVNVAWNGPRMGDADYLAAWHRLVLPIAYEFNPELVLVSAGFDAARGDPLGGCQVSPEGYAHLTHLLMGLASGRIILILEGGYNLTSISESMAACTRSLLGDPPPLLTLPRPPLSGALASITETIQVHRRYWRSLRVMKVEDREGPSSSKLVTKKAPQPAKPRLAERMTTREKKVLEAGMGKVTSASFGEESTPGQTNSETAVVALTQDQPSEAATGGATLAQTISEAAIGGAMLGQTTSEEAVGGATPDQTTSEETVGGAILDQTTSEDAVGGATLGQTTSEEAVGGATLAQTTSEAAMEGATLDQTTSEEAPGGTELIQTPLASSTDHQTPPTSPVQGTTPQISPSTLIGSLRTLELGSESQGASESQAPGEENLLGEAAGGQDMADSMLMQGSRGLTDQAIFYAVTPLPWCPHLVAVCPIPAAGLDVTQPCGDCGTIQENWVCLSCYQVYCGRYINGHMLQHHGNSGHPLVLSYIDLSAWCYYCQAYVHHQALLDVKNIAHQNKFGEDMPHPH
# experiment_description: HDAC6 enzyme inhibitory activity (HDAC-Glo I/II Assay kit)
# Format: biochemical
# condition_label: 10 μM; wells without enzyme = 100% inhibition; read-out: HDAC6 inhibitory rate (%) (10 μM)
One number for each entry, in %.

Worked examples follow.
| molecule | readout_type | unit_of_measurement | recorded_measurement |
| --- | --- | --- | --- |
| CC(C)(C(=O)N[C@@H]1CCOC[C@H]1N1Cc2c(F)cc(-c3nnc(C(F)F)o3)cc2C1=O)C(F)(F)F | inhibition at 10 µM | % | 100 |
| O=C1c2cc(-c3nnc(C(F)F)o3)ccc2CN1[C@@H]1CCC(F)(F)C[C@H]1NC(=O)C(F)(F)C(F)(F)F | inhibition at 10 µM | % | 99 |
| O=C1c2cc(-c3nnc(C(F)F)o3)ccc2CN1Cc1ccc(F)cc1 | inhibition at 10 µM | % | 98 |
| O=C(N[C@@H]1CCCC[C@H]1N1Cc2ccc(-c3nnc(C(F)F)o3)cc2C1=O)C1CC1(F)F (stereo partly shown) | inhibition at 10 µM | % | 102 |

Would you be so kind as to report inhibition at 10 µM for each listed record?
1. O=C1c2cc(-c3nnc(C(F)F)o3)ccc2CN1c1ccnn1-c1cccc(Cl)c1
2. O=C1c2cc(-c3nnc(C(F)F)o3)ccc2CN1[C@@H]1CCOC[C@H]1n1nnc2cc(Cl)ccc21
3. CC(F)C(=O)N[C@@H]1CCCC[C@H]1N1Cc2ccc(-c3nnc(C(F)F)o3)cc2C1=O (stereo partly shown)
4. O=C1c2cc(-c3nnc(C(F)F)o3)cnc2CN1Cc1ccccc1C(F)(F)F

[reply]
[100, 100, 101, 96]

Would you be so kind as to report inhibition at 10 µM for each listed record?
1. COC(=O)N1CC[C@@H](N2Cc3ccc(-c4nnc(C(F)F)o4)cc3C2=O)[C@@H](c2ccccc2)C1
2. Cn1cc(C2=CCN(C(=O)OC(C)(C)C)CC2)c(N2Cc3ccc(-c4nnc(C(F)F)o4)cc3C2=O)n1
3. CCC(=O)N[C@@H]1CCCC[C@H]1N1Cc2ncc(-c3nnc(C(F)F)o3)cc2C1=O
4. CC(=O)N[C@@H]1CCCC[C@H]1N1Cc2ccc(-c3nnc(C(F)F)o3)cc2C1=O
5. O=C1CCCCN1[C@@H]1COCC[C@H]1N1Cc2c(F)cc(-c3nnc(C(F)F)o3)cc2C1=O
6. O=C1c2cc(-c3nnc(C(F)F)o3)cnc2CN1[C@@H]1CCCC[C@H]1c1ccn[nH]1 (racemic)

[reply]
1: 100; 2: 99; 3: 100; 4: 100; 5: 98; 6: 100

Would you be so kind as to report inhibition at 10 µM for each listed record?
1. O=C1c2cc(-c3nnc(C(F)F)o3)cnc2CN1[C@@H]1CCCC[C@H]1Oc1ccccn1
2. Cn1cc(C2CCN(CC(F)(F)C(F)(F)F)CC2)c(N2Cc3ccc(-c4nnc(C(F)F)o4)cc3C2=O)n1
3. O=C1c2cc(-c3nnc(C(F)F)o3)ccc2CN1[C@@H]1CCCC[C@H]1NC(=O)C1(c2ccc(F)cc2)CC1
4. O=C1c2cc(-c3nnc(C(F)F)o3)cnc2CN1c1ccc(F)cc1Br

[reply]
1: 100; 2: 99; 3: 100; 4: 100
